Known inhibition of a selection of compounds
TEST_TARGET: L-lactate dehydrogenase (Plasmodium falciparum (isolate CDC / Honduras)) (UniProt Q27743)
Sequence (Q27743 whole entry, looked up): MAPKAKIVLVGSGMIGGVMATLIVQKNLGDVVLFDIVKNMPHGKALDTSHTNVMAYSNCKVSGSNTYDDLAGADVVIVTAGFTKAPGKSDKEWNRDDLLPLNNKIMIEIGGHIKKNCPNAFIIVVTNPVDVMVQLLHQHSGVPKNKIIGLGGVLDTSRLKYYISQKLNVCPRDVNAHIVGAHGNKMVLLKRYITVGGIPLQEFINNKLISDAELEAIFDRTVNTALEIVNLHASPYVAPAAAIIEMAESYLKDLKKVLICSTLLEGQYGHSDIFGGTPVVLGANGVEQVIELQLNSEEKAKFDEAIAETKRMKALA
TEST_PROTOCOL: PfLDH activity inhibition – cell lysate, 3D7 strain, counter-screen for P. falciparum growth inhibition project (AID 2304);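 note: 0% = vehicle and 100% = reference inhibitor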
SETTINGS: P. falciparum 3D7 crude extract, LDH APAD/NBT absorbance; at 2 µM; hits give high values
Value expressed in %; do not type the unit.

Solved entries:
O=C(/C=C/c1ccc(Cl)cc1Cl)NCCCCCN1CCC(c2c[nH]c3ccccc23)CC1 ... 1
CN(C)c1ccc(C2(c3ccccc3)N=C(N)N(CCCc3ccccc3)C2=O)cc1 (stereo not given) ... 0
c1cc(Nc2nc(-c3ccc(-c4csc(Nc5ccncc5)n4)cc3)cs2)ccn1 ... -4

In: Could you please provide reported inhibition for CC(C)CCN(Cc1cncn1Cc1cccc(C(F)(F)F)c1)C(=O)c1ccccc1C#N ? Thanks!
Out: -2

In: Note inhibition for the compound shown: COc1cc(NC(=O)c2cccs2)c(OC)cc1NC(=O)Nc1cccc(Cl)c1
Out: -3

In: Item CSc1sc(NC(=O)Nc2cccc(C(F)(F)F)c2)cc1C#N : provide inhibition
Out: -1

In: Write down inhibition measured for item O=C(NCC1CCC(C(=O)NC2CCCc3ccccc32)CC1)c1ccc(O)c(-c2ccc(Cl)c(Cl)c2)c1 (stereo not given)
Out: -4

In: Give a short answer stating reported inhibition for CCCc1ccccc1Nc1nc(C)cc(N(CC)CCCN2CCCCC2)n1 .
Out: -3

In: Could you please provide reported inhibition for CCC(ON1C(N)=NC(N)=NC1(C)C)c1ccccc1 (stereo not given) ? Thanks!
Out: -4

In: Name the recorded inhibition of the compound listed here: CC(C)COc1ccc(Cl)cc1Cc1ccc(-c2nc3cc(F)c(F)cc3[nH]2)o1
Out: 4

====

TEST_TARGET: Protein kinase 7 (PK7), Plasmodium falciparum 3D7 (PF3D7_0213400)
TEST_PROTOCOL: inhibition of Plasmodium PK7 catalytic activity – biochemical, TCAMS antimalarial set, Kinase-Glo luminescence (AID 1159587)
SETTINGS: recombinant PfPK7, Kinase-Glo ATP depletion luminescence
Active and inactive are the calls of the source. How the calls were made is not given here.
RECORDED_METRIC: outcome

Cc1cc(N(C)C)nc(Nc2ccc(NC(=O)c3cccc(F)c3)cc2)n1 ... inactive
COc1cccc(-c2nn(C)c3sc(C(=O)NCCN(C)Cc4ccccc4)cc23)c1 ... inactive
COC1(C)Oc2ccc3cccc([N+](=O)[O-])c3c2C1=O (stereo unspecified) ... inactive
O=C(OCc1ccccn1)c1nc2ccccc2[nH]1 ... inactive
CC(C)(C)c1ccc2nc(-c3ccc(/C=C/C(=O)NCc4cccc(C(F)(F)F)c4)cc3)[nH]c2c1 ... inactive

Turning now to a further molecule:
In: Tell me measured outcome for Cc1[nH]c(C)c(-c2ccc(OCc3ccc(F)cc3)cc2)c(=O)c1Br please.
Out: inactive

====

TEST_TARGET: L-lactate dehydrogenase (Plasmodium falciparum (isolate CDC / Honduras)) (UniProt Q27743)
TEST_PROTOCOL: PfLDH activity inhibition – cell lysate, 3D7 strain, counter-screen for P. falciparum growth inhibition project (AID 2304);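 note: 0% = vehicle and 100% = reference inhibitor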
SETTINGS: P. falciparum 3D7 crude extract, LDH APAD/NBT absorbance; at 2 µM; hits give high values
Attribute: inhibition
Value expressed in %; do not type the unit.

// solved cases for inhibition follow
CCNc1cc(C(=O)N[C@@H](Cc2ccccc2)[C@H](O)CNCc2cccc(-c3cncnc3)c2)cc(N2CCCC2=O)c1 ... 2
Cn1cnc(CCNC(=O)c2ccc(-c3ccc(-c4nc5ccc(C(F)(F)F)cc5[nH]4)s3)cc2)c1 ... -2
Cc1cccc(OCC2CCN(c3ncc(C(=O)NC4CC4)cc3Cl)CC2)c1 ... -2
CN(C(=O)Cc1ccc(Cl)cc1)C1CCN(CCCCCNC(=O)/C=C/c2ccc(Cl)c(Cl)c2)CC1 ... -6
Cc1cccc2[nH]c(-c3ccc(-c4cccc(NC(=O)Nc5ccc(Cl)cc5)c4)s3)nc12 ... -1

In: Look up inhibition of Oc1c(CN2CCC(Cc3ccccc3)CC2)cc(Cl)c2cccnc12 and report it.
Out: 4

In: Read the entry CCCc1ccc(NC(=O)c2cccc(CN3CCCN(Cc4cccc(O)c4)CC3)c2)cc1 and write its reported inhibition.
Out: -2

In: Tell me inhibition reported for Clc1ccc2nnc(-c3c(Cl)cccc3Cl)n2n1
Out: -3

In: Determine its reported inhibition: CC(C)(C)c1ccc(OCCCON2C(N)=NC(N)=NC2(C)C)c(C(C)(C)C)c1
Out: 2
